# Species on record: Rattus norvegicus
# experiment summary: Open TG-GATES - Regimen: Single
# Format: toxicity, organism-based, Sprague-Dawley
# Set-up: regimen Single, gender Male, age 6 weeks
# condition summary: in vivo, po, 0 mg/kg, 9 h, tissue Plasma, route gavage, dose level Control
measurement name: Cl (meq/L)
All answers are understood in meq/L, so give the number only.

CCO
106.4
CC(=O)[C@@]1(O)CC[C@H]2[C@@H]3C=C(Cl)C4=CC(=O)CC[C@]4(C)[C@H]3CC[C@@]21C
104.8
Nc1ccc(Cc2ccc(N)cc2)cc1
106.4
O=c1ccc2ccccc2o1
106
CN(C/C=C/C#CC(C)(C)C)Cc1cccc2ccccc12
103.6
CN(CCOc1ccc(CC2SC(=O)NC2=O)cc1)c1ccccn1.O=C(O)/C=C\C(=O)O (stereo unspecified) [ROSIGLITAZONE MALEATE]
104.8
CCCCNC(=O)NS(=O)(=O)c1ccc(C)cc1 [TOLBUTAMIDE]
106.2
COc1ccc([C@@H]2Sc3ccccc3N(CCN(C)C)C(=O)[C@@H]2OC(C)=O)cc1
107

According to the records, this compound CC(S)C(=O)NCC(=O)O (stereo unspecified) displays Cl of 105

Cl recorded for this compound, `O=C(O)c1ccccc1Nc1ccccc1` , is 106

Cl in this record for `CN(C)CCCN1c2ccccc2Sc2ccc(Cl)cc21` : 104
